Readings of apparent K (half saturation) for the listed binders
# tgt: SaSsbA (Staphylococcus aureus, UniProt A0A0D1JHQ1 1-167)
# protocolText: EMSA; EMSA: 40 mM Tris-HCl pH 7.5, 50 mM NaCl, 37 C, 60 min, 30 fmol/uL DNA (30 nM); 8% native PAGE in TBE
# conditionInfo: protein: recombinant; chain copies: 4; label: 5' biotin; single strand
The reply should contain only the number, in nM.

Below, each entry is followed by its recorded apparent K (half saturation) result.
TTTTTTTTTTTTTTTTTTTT (ssDNA) [dT20] : 1770
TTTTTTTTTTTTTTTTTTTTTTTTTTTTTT (ssDNA) [dT30] : 460
dT59 (ssDNA) DNA: TTTTTTTTTTTTTTTTTTTTTTTTTTTTTTTTTTTTTTTTTTTTTTTTTTTTTTTTTTT : 240

# ---- query binder ----
# lookup: apparent K (half saturation) of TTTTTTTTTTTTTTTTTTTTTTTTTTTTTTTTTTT (ssDNA) [dT35]
360

Data origin, for the record: paper PMC9692666
